system: P. berghei; test: P. berghei infections in Anopheles stephensi (oocyst prevalence and intensity); format: in vivo, Plasmodium berghei; conditions: Replicate 2; 50 µM peptide; An. stephensi
No end group written: not given here.
measurement kind: Intensity (mean number of oocysts, range in parentheses), peptide

macromolecule_sequence="KFPKFRRGIPFLFVGPSGKFPKFRRGIPFLFV [Vida 3 dimer]" test_result="37 (0–271)"
macromolecule_sequence="GLLKRIKTLL [Anoplin, 10 aa peptide isolated from the solitary wasp, homology to Mastoparan X]" test_result="74 (0–580)"
macromolecule_sequence="CKQSCSFGPFTFVCDGNTK (also: bicyclic or more (positions not given here)) [Duramycin, A lantibiotic from bacteria, 19 aa (Sigma D3168)]" test_result="59 (0–294)"
macromolecule_sequence="AGYLLGKINLKALAALAKKILGGAGYLLGKINLKALAALAKKIL [TP10 dimer, TP10 (dimer)]" test_result="4 (0–67)"

The origin of these recorded values is paper PMC3836994.
